- System: 935938-334-R-J1-PDC complex spheroid viability
- Assay overview: Anticancer human tumor 935938-334-R-J1-PDC patient-derived small intestine adenocarcinoma cell line growth inhibition [POLQ]
- Recorded conditions: second compound 0.1 µM; first compound 0.1 µM; stronger effect = lower value
- Method: Multicellular complex tumor spheroid response to Polymerase (POL) inhibitors (novobiocin, ART-558, RP6685) in combination with a variety of drugs and investigational agents in selected tumor cell lines The POL inhibitors (novobiocin, ART-558, and RP6685) were evaluated both individually and in combination with standard of care and investigational anticancer small molecules within a complex spheroid model of solid tumors. . […]
We begin with a simple list: items and their reported viability, T/C.
Readout type: viability, T/C (%)

Molecule: CNCc1ccc(-c2[nH]c3cc(F)cc4c3c2CCNC4=O)cc1 + Nc1ccc(C#CCN(C(=O)Cc2ncc(C(F)(F)F)cc2C(F)(F)F)c2ccc(F)cc2)nn1
Readout type: viability, T/C
Value unit: %
Observed result: 80.5

Molecule: CC1COCCN1c1cc(-c2ccnn2C)c2ccnc(-c3ccn[nH]3)c2n1 (stereo unspecified) + COC1C(OC(N)=O)C(O)C(Oc2ccc3c(O)c(NC(=O)c4ccc(O)c(CC=C(C)C)c4)c(=O)oc3c2C)OC1(C)C
Readout type: viability, T/C
Value unit: %
Observed result: 36

Molecule: COc1cc2cc(C(=O)CCC(=O)O)sc2cc1OC + COC1C(OC(N)=O)C(O)C(Oc2ccc3c(O)c(NC(=O)c4ccc(O)c(CC=C(C)C)c4)c(=O)oc3c2C)OC1(C)C
Readout type: viability, T/C
Value unit: %
Observed result: 118

Molecule: Cn1ncnc1[C@H]1c2n[nH]c(=O)c3cc(F)cc(c23)N[C@@H]1c1ccc(F)cc1 + Nc1ccc(C#CCN(C(=O)Cc2ncc(C(F)(F)F)cc2C(F)(F)F)c2ccc(F)cc2)nn1
Readout type: viability, T/C
Value unit: %
Observed result: 92.9

Molecule: COc1cccc(OCCCN)c1-c1cc(Nc2cnc(C#N)cn2)n[nH]1 + Cc1cccc(N(C)C(=O)C2C(O)CCN2c2nc(C)cc(C(F)(F)F)c2C#N)c1
Readout type: viability, T/C
Value unit: %
Observed result: 31

Molecule: Cn1ncnc1[C@H]1c2n[nH]c(=O)c3cc(F)cc(c23)N[C@@H]1c1ccc(F)cc1 + Cc1cccc(N(C)C(=O)C2C(O)CCN2c2nc(C)cc(C(F)(F)F)c2C#N)c1
Readout type: viability, T/C
Value unit: %
Observed result: 70

Molecule: CC(C)n1c(=O)n(C)c2cnc3cc(F)c(-c4ccc(OCCCN5CCCCC5)nc4)cc3c21 + Nc1ccc(C#CCN(C(=O)Cc2ncc(C(F)(F)F)cc2C(F)(F)F)c2ccc(F)cc2)nn1
Readout type: viability, T/C
Value unit: %
Observed result: 102

Molecule: Nc1ccn(C2OC(CO)C(O)C2(F)F)c(=O)n1 (stereo unspecified) + Cc1cccc(N(C)C(=O)C2C(O)CCN2c2nc(C)cc(C(F)(F)F)c2C#N)c1
Readout type: viability, T/C
Value unit: %
Observed result: 29.7

Molecule: C=CCn1c(=O)c2cnc(Nc3ccc(N4CCN(C)CC4)cc3)nc2n1-c1cccc(C(C)(C)O)n1 + Cc1cccc(N(C)C(=O)C2C(O)CCN2c2nc(C)cc(C(F)(F)F)c2C#N)c1
Readout type: viability, T/C
Value unit: %
Observed result: 107

Molecule: CC(C)n1c(=O)n(C)c2cnc3cc(F)c(-c4ccc(OCCCN5CCCCC5)nc4)cc3c21 + COC1C(OC(N)=O)C(O)C(Oc2ccc3c(O)c(NC(=O)c4ccc(O)c(CC=C(C)C)c4)c(=O)oc3c2C)OC1(C)C
Readout type: viability, T/C
Value unit: %
Observed result: 109

Molecule: COc1cc(C2c3cc4c(cc3C(OC3OC5COC(C)OC5C(O)C3O)C3COC(=O)C23)OCO4)cc(OC)c1O (stereo unspecified) + COC1C(OC(N)=O)C(O)C(Oc2ccc3c(O)c(NC(=O)c4ccc(O)c(CC=C(C)C)c4)c(=O)oc3c2C)OC1(C)C
Readout type: viability, T/C
Value unit: %
Observed result: 94

====

- Tested on: 935938-334-R-J1-PDC complex spheroid viability
- Assay overview: Anticancer human tumor 935938-334-R-J1-PDC cell line growth inhibition [POLQ];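 further: spheroids exposed to drugs for seven days before viability read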
- Recorded conditions: curve of first compound; second compound 0.316 µM
Readout type: IC50 (µM)

Molecule: CC(=O)O[C@H]1C(=O)[C@@]2(C)[C@H]([C@H](OC(=O)c3ccccc3)[C@]3(O)C[C@H](OC(=O)[C@H](O)[C@@H](NC(=O)c4ccccc4)c4ccccc4)C(C)=C1C3(C)C)[C@]1(OC(C)=O)CO[C@@H]1C[C@@H]2O + Cc1cccc(N(C)C(=O)C2C(O)CCN2c2nc(C)cc(C(F)(F)F)c2C#N)c1
Inequality symbol: <
Observed result: 0.00949
--
Molecule: COc1ccc([C@@H](O)c2cc(-c3ncnc4cc(N5CCOCC5)ccc34)c(F)cc2Cl)nn1 + COC1C(OC(N)=O)C(O)C(Oc2ccc3c(O)c(NC(=O)c4ccc(O)c(CC=C(C)C)c4)c(=O)oc3c2C)OC1(C)C
Inequality symbol: =
Observed result: 4.59

====

- Tested on: 935938-334-R-J1-PDC complex spheroid viability
- Assay overview: Anticancer human tumor 935938-334-R-J1-PDC cell line growth inhibition [POLQ];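 further: spheroids exposed to drugs for seven days before viability read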;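 on viability, T/C: 100% = DMSO vehicle control wells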
- Recorded conditions: second compound 1 µM; first compound 0.316 µM; stronger effect = lower value
We begin with a simple list: items and their reported viability, T/C.
Readout type: viability, T/C (%)

Compound: COc1cccc(OCCCN)c1-c1cc(Nc2cnc(C#N)cn2)n[nH]1 + COC1C(OC(N)=O)C(O)C(Oc2ccc3c(O)c(NC(=O)c4ccc(O)c(CC=C(C)C)c4)c(=O)oc3c2C)OC1(C)C
Value unit: %
Observed result: 11.1
//
Compound: O=C(Nc1ccc(O)c(NS(=O)(=O)c2ccc(F)cc2)c1)c1ccc(-c2ccccc2)cc1 + Cc1cccc(N(C)C(=O)C2C(O)CCN2c2nc(C)cc(C(F)(F)F)c2C#N)c1
Value unit: %
Observed result: 100
//
Compound: CC(C)n1c(=O)n(C)c2cnc3cc(F)c(-c4ccc(OCCCN5CCCCC5)nc4)cc3c21 + COC1C(OC(N)=O)C(O)C(Oc2ccc3c(O)c(NC(=O)c4ccc(O)c(CC=C(C)C)c4)c(=O)oc3c2C)OC1(C)C
Value unit: %
Observed result: 99.3
//
Compound: C=CCn1c(=O)c2cnc(Nc3ccc(N4CCN(C)CC4)cc3)nc2n1-c1cccc(C(C)(C)O)n1 + Cc1cccc(N(C)C(=O)C2C(O)CCN2c2nc(C)cc(C(F)(F)F)c2C#N)c1
Value unit: %
Observed result: 92.1
//
Compound: COc1cc2cc(C(=O)CCC(=O)O)sc2cc1OC + Cc1cccc(N(C)C(=O)C2C(O)CCN2c2nc(C)cc(C(F)(F)F)c2C#N)c1
Value unit: %
Observed result: 103
//
Compound: O=c1[nH]cc(F)c(=O)[nH]1 + Cc1cccc(N(C)C(=O)C2C(O)CCN2c2nc(C)cc(C(F)(F)F)c2C#N)c1
Value unit: %
Observed result: 122
//
Compound: CCCS(=O)(=O)Nc1ccc(F)c(C(=O)c2c[nH]c3ncc(-c4ccc(Cl)cc4)cc23)c1F + Nc1ccc(C#CCN(C(=O)Cc2ncc(C(F)(F)F)cc2C(F)(F)F)c2ccc(F)cc2)nn1
Value unit: %
Observed result: 95.1
//
Compound: COc1cc2cc(C(=O)CCC(=O)O)sc2cc1OC + COC1C(OC(N)=O)C(O)C(Oc2ccc3c(O)c(NC(=O)c4ccc(O)c(CC=C(C)C)c4)c(=O)oc3c2C)OC1(C)C
Value unit: %
Observed result: 90.8
//
Compound: CC1COCCN1c1cc(C2(S(C)(=N)=O)CC2)nc(-c2ccnc3[nH]ccc23)n1 (centres undefined) + COC1C(OC(N)=O)C(O)C(Oc2ccc3c(O)c(NC(=O)c4ccc(O)c(CC=C(C)C)c4)c(=O)oc3c2C)OC1(C)C
Value unit: %
Observed result: 84.8

====

- System: 935938-334-R-J1-PDC complex spheroid viability
- Assay overview: Anticancer human tumor 935938-334-R-J1-PDC cell line growth inhibition [POLQ];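 further: spheroids exposed to drugs for seven days before viability read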;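 on viability, T/C: 100% = DMSO vehicle control wells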
- Recorded conditions: second compound 0.1 µM; first compound 0.01 µM; stronger effect = lower value
We begin with a simple list: items and their reported viability, T/C.

Molecule: CC[C@@]1(O)C(=O)OCc2c1cc1n(c2=O)Cc2cc3c(CN(C)C)c(O)ccc3nc2-1 + Cc1cccc(N(C)C(=O)C2C(O)CCN2c2nc(C)cc(C(F)(F)F)c2C#N)c1
Value unit: %
viability, T/C: 128

Molecule: CCc1c2c(nc3ccc(O)cc13)-c1cc3c(c(=O)n1C2)COC(=O)[C@]3(O)CC + Nc1ccc(C#CCN(C(=O)Cc2ncc(C(F)(F)F)cc2C(F)(F)F)c2ccc(F)cc2)nn1
Value unit: %
viability, T/C: 64.3

Molecule: CC[C@@]1(O)C(=O)OCc2c1cc1n(c2=O)Cc2cc3c(CN(C)C)c(O)ccc3nc2-1 + COC1C(OC(N)=O)C(O)C(Oc2ccc3c(O)c(NC(=O)c4ccc(O)c(CC=C(C)C)c4)c(=O)oc3c2C)OC1(C)C
Value unit: %
viability, T/C: 90.9
